# Tested on: MCF7
# Experiment summary: Anticancer activity against human MCF7 cells assessed as cell viability at 30 uM after 72 hrs by sulforhodamine B assay relative to control
# Type: functional
# Conditions used: MCF7, 72 h, read-out: Activity
true (1) if viability at 30 µM is below 30%. false (0) if not; exact matches included in false (0).

Molecule: COC(=O)C1=C(N)Oc2ccc(Br)cc2C1CC(=O)c1ccc(Cl)cc1 (stereo unspecified)
Label: false (0)
//
Molecule: Cc1ccc(C(=O)/C=C/c2cccc(Br)c2)cc1
Label: false (0)
//
Molecule: COc1cccc(C(=O)/C=C/c2cc(Cl)ccc2O)c1
Label: true (1)
//
Molecule: COC(=O)C1=C(N)Oc2ccc(Cl)cc2C1CC(=O)c1ccccc1 (stereo unspecified)
Label: false (0)
//
Molecule: O=C(/C=C/c1cc(F)cc(F)c1O)c1ccccc1
Label: false (0)
//
Molecule: Cc1ccc(C(=O)/C=C/c2cc(Cl)ccc2O)cc1
Label: true (1)
//
Molecule: Cc1ccc(C(=O)CC2C(C#N)=C(N)Oc3ccc(Br)cc32)cc1 (stereo unspecified)
Label: false (0)
//
Molecule: COC(=O)C1=C(N)Oc2c(OC)cc(Br)cc2C1CC(=O)c1ccc(Cl)cc1 (stereo unspecified)
Label: false (0)
//
Molecule: N#CC1=C(N)Oc2ccccc2C1CC(=O)c1ccccc1 (stereo unspecified)
Label: false (0)
//
Molecule: O=C(/C=C/c1ccccc1O)c1ccccc1
Label: false (0)
//
Molecule: COc1cc(Br)cc2c1OC(N)=C(C#N)C2CC(=O)c1ccc(Cl)cc1 (stereo unspecified)
Label: false (0)
//
Molecule: COc1cc(Br)cc(/C=C/C(=O)c2ccc(Cl)cc2)c1O
Label: true (1)
//
Molecule: Cc1ccc(C(=O)/C=C/c2cc(Br)ccc2O)cc1
Label: false (0)
//
Molecule: COc1cc(Br)cc2c1OC(N)=C(C#N)C2CC(=O)c1ccc(Br)cc1 (stereo unspecified)
Label: false (0)
//
Molecule: O=C(/C=C/c1cc(Br)ccc1O)c1ccc(Br)cc1
Label: true (1)
//
Molecule: Cc1ccc(C(=O)/C=C/c2cc(F)cc(F)c2O)cc1
Label: false (0)

====

# Experiment summary: Cytotoxicity against human MCF10A cells assessed as cell viability at 30 uM after 72 hrs by sulforhodamine B assay relative to control
# Type: cell-based, MCF-10A
# Conditions used: read-out: Activity

Compound: O=C(/C=C/c1cc(Br)ccc1O)c1ccc(Br)cc1
Output unit: %
viability at 72 h, 30 µM: 47.6

Compound: COc1ccc(O)c(/C=C/C(=O)c2ccc(Cl)cc2)c1
Output unit: %
viability at 72 h, 30 µM: 48

Compound: Cc1ccc(C(=O)CC2C(C#N)=C(N)Oc3ccc(Cl)cc32)cc1 (configuration not stated)
Output unit: %
viability at 72 h, 30 µM: 53.3

Compound: COc1cc(Br)cc2c1OC(N)=C(C#N)C2CC(=O)c1ccccc1 (configuration not stated)
Output unit: %
viability at 72 h, 30 µM: 45.9

Compound: COc1cc(Br)cc2c1OC(N)=C(C#N)C2CC(=O)c1ccc(Cl)cc1 (configuration not stated)
Output unit: %
viability at 72 h, 30 µM: 41.6

Compound: N#CC1=C(N)Oc2ccc(Br)cc2C1CC(=O)c1ccc(Br)cc1 (configuration not stated)
Output unit: %
viability at 72 h, 30 µM: 43.6

Compound: O=C(/C=C/c1cc(F)cc(F)c1O)c1ccccc1
Output unit: %
viability at 72 h, 30 µM: 41.4

Compound: COc1cc(Br)cc(/C=C/C(=O)c2ccc(Cl)cc2)c1O
Output unit: %
viability at 72 h, 30 µM: 47.8

Compound: COC(=O)C1=C(N)Oc2c(OC)cc(Br)cc2C1CC(=O)c1ccc(Cl)cc1 (configuration not stated)
Output unit: %
viability at 72 h, 30 µM: 47.8

Compound: COc1cccc(C(=O)CC2C(C#N)=C(N)Oc3ccc(Br)cc32)c1 (configuration not stated)
Output unit: %
viability at 72 h, 30 µM: 43.7

Compound: COc1cccc(C(=O)/C=C/c2cc(Br)cc(OC)c2O)c1
Output unit: %
viability at 72 h, 30 µM: 47

Compound: Cc1ccc(C(=O)CC2C(C#N)=C(N)Oc3ccc(Br)cc32)cc1 (configuration not stated)
Output unit: %
viability at 72 h, 30 µM: 33.5

====

# Experiment summary: Cytotoxicity against human MCF10A cells assessed as cell viability at 10 uM after 72 hrs by sulforhodamine B assay relative to control
# Format: cell-based, MCF-10A
# Conditions used: read-out: Activity
1 if viability at 72 h, 10 µM is below 40%. 0 if not; exact matches included in 0.

Molecule: COc1cccc(C(=O)/C=C/c2cc(Br)ccc2O)c1
Label: 1
//
Molecule: COc1ccc(O)c(/C=C/C(=O)c2ccc(Cl)cc2)c1
Label: 1
//
Molecule: COc1cc(Br)cc(/C=C/C(=O)c2ccc(C)cc2)c1O
Label: 0
//
Molecule: COc1cccc(C(=O)CC2C(C#N)=C(N)Oc3ccc(Br)cc32)c1 (configuration not stated)
Label: 0
//
Molecule: Cc1ccc(C(=O)/C=C/c2cc(Cl)ccc2O)cc1
Label: 1
//
Molecule: COc1cc(Br)cc(/C=C/C(=O)c2ccccc2)c1O
Label: 1
